# Assay Overview: self-splicing fitness, log relative to wild type (ln ratio); higher = more splicing; Tetrahymena group I intron in knt gene, E. coli kanamycin selection, DiMSum; sequences stand for … in CUCUCU…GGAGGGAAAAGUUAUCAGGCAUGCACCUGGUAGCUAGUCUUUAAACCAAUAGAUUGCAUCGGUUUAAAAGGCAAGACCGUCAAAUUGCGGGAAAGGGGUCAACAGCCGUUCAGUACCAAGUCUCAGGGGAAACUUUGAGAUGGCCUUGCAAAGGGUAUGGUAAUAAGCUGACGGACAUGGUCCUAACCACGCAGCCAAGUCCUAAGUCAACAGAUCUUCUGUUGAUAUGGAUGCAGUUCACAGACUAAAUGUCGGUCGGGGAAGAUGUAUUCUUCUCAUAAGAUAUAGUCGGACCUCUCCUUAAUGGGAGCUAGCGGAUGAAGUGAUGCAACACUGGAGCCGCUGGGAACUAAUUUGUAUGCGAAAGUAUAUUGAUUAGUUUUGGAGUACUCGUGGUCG;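 note: selection with 25 µg/mL kanamycin versus none on LB agar overnight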
# Measurement Setup: 37 °C
Endpoint Label: self-splicing fitness (ln)

# count of solved cases: 5
GUACAGCAAUAUUACGAUUG: -2.87
AGAUAGCAAUAUUACGGAUU: 0.228
CGAUAGCAAUAUUACGUCCG: -0.5
CUGAAGCAAUAUUACGACUA: -0.875
CUUUAGCAAUAUUACGCUGU: -2.35

Turning now to a further sequence:
Input: Consider the sequence `GACCAGCAAUAUUACGGAGG` . State its measured self-splicing fitness (ln).
Output: -0.681

====

# Assay Overview: self-splicing fitness, log relative to wild type (ln ratio); higher = more splicing; Tetrahymena group I intron in knt gene, E. coli kanamycin selection, DiMSum; sequences stand for … in CUCUCU…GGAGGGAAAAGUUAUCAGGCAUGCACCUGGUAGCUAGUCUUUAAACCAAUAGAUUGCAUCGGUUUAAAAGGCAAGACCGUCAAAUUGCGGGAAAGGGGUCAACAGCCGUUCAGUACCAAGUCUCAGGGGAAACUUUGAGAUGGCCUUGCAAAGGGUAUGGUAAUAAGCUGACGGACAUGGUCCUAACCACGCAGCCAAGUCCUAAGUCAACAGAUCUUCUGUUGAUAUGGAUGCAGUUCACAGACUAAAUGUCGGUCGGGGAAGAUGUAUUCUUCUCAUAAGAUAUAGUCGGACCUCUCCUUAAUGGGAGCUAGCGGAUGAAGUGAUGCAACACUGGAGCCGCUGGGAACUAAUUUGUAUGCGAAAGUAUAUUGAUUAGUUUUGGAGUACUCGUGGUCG
# Measurement Setup: 37 °C
Endpoint Label: self-splicing fitness (ln)
The response must contain the number and no unit.

# count of solved cases: 3
AUGCAGCAAUAUUACGGAAU: -0.752
GACCAGCAAUAUUACGAGGC: -0.778
GAGGAGCAAUAUUACGGAGU: -2.57

Input: Consider the sequence `UAACAGCAAUAUUACGCCCG` . State its measured self-splicing fitness (ln).
Output: -0.59

Input: Consider the sequence `UGGGAGCAAUAUUACGCAGA` . State its measured self-splicing fitness (ln).
Output: -3

Input: Consider the sequence `AGCCAGCAAUAUUACGCAAG` . State its measured self-splicing fitness (ln).
Output: -2.98

Input: Consider the sequence `AGUCAGCAAUAUUACGCUGG` . State its measured self-splicing fitness (ln).
Output: -2.71

Input: Consider the sequence `UGUAAGCAAUAUUACGUCAC` . State its measured self-splicing fitness (ln).
Output: -2.28

Input: Consider the sequence `UAAUAGCAAUAUUACGUCUG` . State its measured self-splicing fitness (ln).
Output: -0.276

Input: Consider the sequence `GACGAGCAAUAUUACGGUCC` . State its measured self-splicing fitness (ln).
Output: -1.74

Input: Consider the sequence `CCUCAGCAAUAUUACGAUCA` . State its measured self-splicing fitness (ln).
Output: -2.96

Input: Consider the sequence `GCCUAGCAAUAUUACGUUCG` . State its measured self-splicing fitness (ln).
Output: -2.09

Input: Consider the sequence `AUUGAGCAAUAUUACGGUAC` . State its measured self-splicing fitness (ln).
Output: -1.72

Input: Consider the sequence `UGUCAGCAAUAUUACGAGAA` . State its measured self-splicing fitness (ln).
Output: -1.48

Input: Consider the sequence `CCUUAGCAAUAUUACGUGCG` . State its measured self-splicing fitness (ln).
Output: -2.04

Input: Consider the sequence `AUCGAGCAAUAUUACGACCG` . State its measured self-splicing fitness (ln).
Output: -1.63

====

The following sequences are shown together with reported self-splicing fitness (ln) values.
# Assay Overview: self-splicing fitness, log relative to wild type (ln ratio); higher = more splicing; Tetrahymena group I intron in knt gene, E. coli kanamycin selection, DiMSum; sequences stand for … in CUCUCU…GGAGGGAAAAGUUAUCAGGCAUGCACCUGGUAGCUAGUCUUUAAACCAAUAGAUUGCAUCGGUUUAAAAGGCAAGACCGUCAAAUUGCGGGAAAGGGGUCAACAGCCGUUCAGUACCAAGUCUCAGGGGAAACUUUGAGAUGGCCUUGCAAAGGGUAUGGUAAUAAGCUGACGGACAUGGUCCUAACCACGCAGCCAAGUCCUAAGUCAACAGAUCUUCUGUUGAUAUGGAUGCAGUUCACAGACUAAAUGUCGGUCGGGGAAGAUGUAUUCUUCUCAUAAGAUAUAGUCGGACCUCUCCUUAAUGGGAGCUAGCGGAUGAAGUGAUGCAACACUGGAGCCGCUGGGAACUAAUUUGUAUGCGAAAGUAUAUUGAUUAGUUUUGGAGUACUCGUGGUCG
# Measurement Setup: 30 °C
The response must contain the number and no unit.

UUAAAGCAAUAUUACGAUAC: -1.57
GCCUAGCAAUAUUACGAAGC: -2.24
CUCGAGCAAUAUUACGGCAA: -1.82
UACAAGCAAUAUUACGUGAA: -2.42

Input: Consider the sequence `AUUUAGCAAUAUUACGUGAU` . State its measured self-splicing fitness (ln).
Output: -0.978

Input: Consider the sequence `AUCUAGCAAUAUUACGCUUG` . State its measured self-splicing fitness (ln).
Output: -1.85

Input: Consider the sequence `CUUCAGCAAUAUUACGUAAG` . State its measured self-splicing fitness (ln).
Output: -0.469

Input: Consider the sequence `AAAGAGCAAUAUUACGGCGG` . State its measured self-splicing fitness (ln).
Output: -3.05

Input: Consider the sequence `GGACAGCAAUAUUACGAGUG` . State its measured self-splicing fitness (ln).
Output: -3.32

Input: Consider the sequence `ACUCAGCAAUAUUACGGGUU` . State its measured self-splicing fitness (ln).
Output: -3.64

Input: Consider the sequence `CCAUAGCAAUAUUACGGAAC` . State its measured self-splicing fitness (ln).
Output: -3.26

Input: Consider the sequence `AAAUAGCAAUAUUACGUGAC` . State its measured self-splicing fitness (ln).
Output: -1.53

Input: Consider the sequence `AGUCAGCAAUAUUACGGGUC` . State its measured self-splicing fitness (ln).
Output: -1.27

Input: Consider the sequence `GGCGAGCAAUAUUACGAAAG` . State its measured self-splicing fitness (ln).
Output: -3.27

Input: Consider the sequence `AGUGAGCAAUAUUACGUUAA` . State its measured self-splicing fitness (ln).
Output: -2.56

Input: Consider the sequence `AUUCAGCAAUAUUACGUGGU` . State its measured self-splicing fitness (ln).
Output: -3

====

# Assay Overview: self-splicing fitness, log relative to wild type (ln ratio); higher = more splicing; Tetrahymena group I intron in knt gene, E. coli kanamycin selection, DiMSum; sequences stand for … in CUCUCU…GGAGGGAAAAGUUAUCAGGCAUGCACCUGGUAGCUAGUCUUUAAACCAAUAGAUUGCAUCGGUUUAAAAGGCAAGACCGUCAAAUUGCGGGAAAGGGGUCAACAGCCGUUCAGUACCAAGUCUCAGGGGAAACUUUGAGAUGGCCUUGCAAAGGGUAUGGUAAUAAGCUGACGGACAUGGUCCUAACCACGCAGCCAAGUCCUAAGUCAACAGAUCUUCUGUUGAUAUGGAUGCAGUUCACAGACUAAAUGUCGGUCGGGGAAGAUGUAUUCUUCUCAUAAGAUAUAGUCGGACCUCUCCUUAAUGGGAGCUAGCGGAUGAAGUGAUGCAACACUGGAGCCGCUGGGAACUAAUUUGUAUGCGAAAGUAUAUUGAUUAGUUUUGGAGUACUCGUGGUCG
# Measurement Setup: 30 °C
Endpoint Label: self-splicing fitness (ln)
The response must contain the number and no unit.

GAUCAGCAAUAUUACGAACG: -0.118
GAACAGCAAUAUUACGUUCC: -2.88
GAUCAGCAAUAUUACGCUUG: -1.02

Input: Consider the sequence `AUGUAGCAAUAUUACGAACU` . State its measured self-splicing fitness (ln).
Output: -0.642

Input: Consider the sequence `CGCCAGCAAUAUUACGUUGA` . State its measured self-splicing fitness (ln).
Output: -2.84

Input: Consider the sequence `UGUAAGCAAUAUUACGACAA` . State its measured self-splicing fitness (ln).
Output: -0.378
